# credit: PubChem BioAssay (NCI)

Test system: MCF7 breast
Test: NCI tumour cell line growth inhibition, 48 h
// reported TGI for each item listed

• CNc1ccc(C(=O)CC(O)CCC(C)C2OC(=O)CC(O)CC(=O)CC(O)CC(O)CC(O)CC(O)CC3(O)CC(O)C(C(=O)OC)C(CC(O[C@@H]4O[C@H](C)[C@@H](O)[C@H](N)[C@@H]4O)/C=C/C=C/C=C/C=C/C=C/C=C/C=C/C2C)O3)cc1 (some centres undefined) = 19 µM
• NS(=O)(=O)c1ccc(N=Nc2c(O)[nH]c3ccc(-c4cnco4)cc23)cc1 = > 25 µM
• COc1ccc(Cn2cc3c(c2-c2ccccc2)CC(C)(C)c2cnoc2-3)cc1 = > 100 µM
• CN1C/C=C\CCOc2cccc(c2)-c2ccnc(n2)Nc2cccc(c2)C1 = 1.23 µM
• NCC1Nc2ccccc2[C@@H](O)C1O (some centres undefined) = > 100 µM
• CN1CCC(O)(C(C)(C)C)CC1 = > 100 µM
• O=C(O)c1ccc([N+](=O)[O-])c2cc3cnccc3nc12 = 38.7 µM
• COc1cc(Cn2c3c(c4cc(O)ccc42)Cc2ccccc2C3=O)cc(OC)c1 = 78.6 µM

Now consider a different compound.
Reported MCF7 breast TGI for item COc1cc(-c2ccc3c(c2)NC(=O)/C3=C\c2ccc[nH]2)ccc1O was > 50 µM

---

Tested on: UACC-62 melanoma
Assay: NCI tumour cell line growth inhibition, 48 h; in the data active means GI50 below about 0.43 µM; inactive means the rest
Answer with one of the outcomes given here: yes for active, no for inactive

- Cc1cc(S(=O)(=O)Nc2nnc(-c3ccccc3)c(-c3ccccc3)n2)c(SCC(N)=O)cc1Cl: no
- Cc1ccc(C(=O)CN(/C=C/C(=O)C(F)(F)F)c2ccc(S(N)(=O)=O)cc2)cc1: no
- COc1ccccc1CNCCCN1C(=O)c2ccc3c4c(ccc(c24)C1=O)C(=O)N(CCCOCCCCOCCCN)C3=O: no
- CC(C)n1nc(-c2cc3cc(O)ccc3[nH]2)c2c(N)ncnc21: yes
- Clc1ccc(C2=Nn3c(COc4ccccc4Cl)nnc3SC2)c(Cl)c1: no

I would be grateful if you could indicate the recorded call for C[C@@]12CC=C3c4nc(Nc5cccc(O)c5)sc4CC[C@]3(C)[C@H]1CC[C@]1(C)C(=O)CC[C@@H]21 . no

I would be grateful if you could indicate the recorded call for CN(C)C(=O)c1cc2cnc(Nc3ccc(-c4csc5c(=S)cc(N6CCOCC6)oc45)cc3)nc2n1C1CCCC1 . yes

I would be grateful if you could indicate the recorded call for Cc1cccc(N2CCN(C(=S)c3ccc4c(c3)OCO4)CC2)c1 . no

I would be grateful if you could indicate the recorded call for c1cc(CNC23CC4CC(CC(C4)C2)C3)cc(C[N+](Cc2cccc(CNC34CC5CC(CC(C5)C3)C4)c2)(Cc2cccc(CNC34CC5CC(CC(C5)C3)C4)c2)Cc2cccc(CNC34CC5CC(CC(C5)C3)C4)c2)c1 (stereo unspecified) . no

I would be grateful if you could indicate the recorded call for N=C1C(c2nc3ccccc3s2)=C(O)CN1c1cc(C(F)(F)F)ccc1Cl . no

I would be grateful if you could indicate the recorded call for CCC[CH2][Sn]1([CH2]CCC)[O]CC(CN2CCCC2)[O]1 (stereo unspecified) . no

I would be grateful if you could indicate the recorded call for CCCCCCCC/C=C/CCCCCCCC(=O)OC[C@H]1O[C@@H](n2ccc(N)nc2=O)C(F)(F)[C@@H]1O . yes

I would be grateful if you could indicate the recorded call for C=C1C(=O)O[C@H]2[C@H]1CC/C(COC(=O)C(=O)c1cn(Cc3ccccc3)c3ccccc13)=C\CC[C@@]1(C)O[C@@H]21 . no

---

// reported TGI for each item listed
Tested on: A549 NSCLC
Test: NCI tumour cell line growth inhibition, 48 h

Solved entries:
- N#CC(NNC(=O)Cc1ccccc1)c1c(O)ccc2ccccc12 (stereo unspecified): 44.1 µM
- CCOc1ccccc1N=Nc1ccc2oc(=O)c(C(=O)Nc3cccc(C)c3)cc2c1: > 100 µM
- Oc1ccccc1C(Sc1nc2ccccc2s1)Sc1nc2ccccc2s1: > 100 µM
- O=S(=O)(N=S(c1ccccc1)c1ccccc1)c1ccccc1: > 100 µM
- O=C(NCCCNCCCNC(=O)c1cc(-c2ccccc2)nc2ccccc12)c1cc(-c2ccccc2)nc2ccccc12: 3.34 µM

Reported A549 NSCLC TGI for item CCOC(=O)/C=C(/C(=O)OCC)n1ccc(=O)n(Cc2cn(COCCOC(C)=O)nn2)c1=O was > 100 µM

Reported A549 NSCLC TGI for item COC(C(O)CO)C(O)C(O)C(=O)NNc1ccccc1 (stereo unspecified) was > 100 µM

Reported A549 NSCLC TGI for item CC1(C)SCc2nc3ncccc3n21 was > 100 µM

---

Test system: T-47D breast
Assay: NCI tumour cell line growth inhibition, 48 h
measure: GI50

• COc1cc(/C=C/c2cc(/C=C/c3ccc(O)c(OC)c3)n(C(=O)Nc3ccc(F)c(Cl)c3)n2)ccc1O = 0.634 µM
• Clc1ccc(C2=Nn3c(COc4ccccc4Cl)nnc3SC2)c(Cl)c1 = 14 µM

Briefly, GI50 measured for COC1=CC(=O)c2nc(-c3cccc(C)n3)[nH]c2C1=O : 15.8 µM

Briefly, GI50 measured for COc1cc2c3c(n(CCCNC(=O)OCC4c5ccccc5-c5ccccc54)c(=O)c2cc1OC)-c1cc2c(cc1/C3=C\CCNC(=O)OCC1c3ccccc3-c3ccccc31)OCO2 : > 50 µM

Briefly, GI50 measured for NS(=O)(=O)c1ccc(N=Nc2c(O)[nH]c3ccc(-c4cnco4)cc23)cc1 : > 25 µM

---

System: ACHN renal
Test: NCI tumour cell line growth inhibition, 48 h
measure: TGI

Briefly, TGI measured for COC(CNC(=O)C(C)NC(=O)CCc1ccccc1)OC (stereo unspecified) : > 100 µM

Briefly, TGI measured for O=C1CSC(c2cccc(Oc3ccccc3)c2)N1c1ccc(Cl)cc1 (stereo unspecified) : 75 µM

Briefly, TGI measured for O=C(O)C1OC(n2cc(F)c(=O)[nH]c2=O)CC1O (stereo unspecified) : > 59.1 µM

Briefly, TGI measured for COC(=O)[C@H](C)NC(=O)NC(=O)NC(=O)CI : 21 µM

Briefly, TGI measured for OC[C@H]1CCCC1O (stereo partly specified) : > 100 µM

Briefly, TGI measured for NS(=O)(=O)c1ccc(N=Nc2c(O)[nH]c3ccc(-c4cnco4)cc23)cc1 : > 25 µM

---

Tested on: A498 renal
Experiment: NCI tumour cell line growth inhibition, 48 h
Please use Yes whenever TGI is not below 30 µM, and No whenever it is.

* COc1cc(/C=C(\C#N)C(N)=O)cc(Br)c1O | Yes
* O=P(Nc1ccc(Cl)cc1)(Oc1ccccc1)N(CCCl)CCCl (configuration not stated) | Yes
* CC1(C)C(=O)N(CCCCCCN2C(=O)C(C)(C)c3ccccc32)c2ccccc21 | Yes
* COc1cc(Cn2c3c(c4cc(O)ccc42)Cc2ccccc2C3=O)cc(OC)c1 | Yes
* O=C(O)c1ccc([N+](=O)[O-])c2cc3cnccc3nc12 | Yes

Threshold query (TGI >= 30 µM) on COc1ccc(Nc2c3ccccc3nc3occc23)cc1 No

Threshold query (TGI >= 30 µM) on CCOc1ccccc1NC(=O)CC(C(=O)OC)C(=O)C(=O)OC (configuration not stated) Yes

Threshold query (TGI >= 30 µM) on COc1ccc(Cn2cc3c(c2-c2ccccc2)CC(C)(C)c2cnoc2-3)cc1 No

---

Tested on: IGROV1 ovarian
Assay: NCI tumour cell line growth inhibition, 48 h
// reported TGI for each item listed

• OCC(O)COCn1nncc1Cn1ncc2c(SCc3ccccc3)ncnc21 (configuration not stated) = > 100 µM

Reported IGROV1 ovarian TGI for item O=C(O)C1OC(n2cc(F)c(=O)[nH]c2=O)CC1O (configuration not stated) was > 100 µM

Reported IGROV1 ovarian TGI for item Oc1ccc(-c2nc(-c3cccnc3)c(-c3ccc(Cl)cc3)[nH]2)cc1 was 23 µM

---

System: SNB-75 CNS
Experiment: NCI tumour cell line growth inhibition, 48 h; in the data active = GI50 below about 0.43 µM; inactive = the rest
Answer with one of the outcomes given here: active, inactive

Here are 5 molecules together with their reported answers.
* CN1CCN(CCCOc2ccc3nc(Nc4ccc(Cl)c(C(F)(F)F)c4)ccc3c2)CC1 | inactive
* COc1ccccc1CNCCCN1C(=O)c2ccc3c4c(ccc(c24)C1=O)C(=O)N(CCCOCCCCOCCCN)C3=O | inactive
* CCOC(=O)[C@@H](N)CCC(=O)N[C@@H](CSCc1ccccc1)C(=O)N[C@@H](C(=O)OCC)c1ccccc1 | inactive
* CCC[CH2][Sn]1([CH2]CCC)[O]CC(CN2CCCC2)[O]1 (stereo unspecified) | inactive
* COc1cc(-c2ccc3c(c2)NC(=O)/C3=C\c2ccc[nH]2)ccc1O | active

Note: attention shifts to another entry.
I would be grateful if you could indicate the recorded call for COC(=O)C1=CNC=C(C(=O)OC)C1C1=CC(=O)C(C)=CC1=O . inactive
